- tested target: UniProtKB P18901
- Sequence (P18901 whole entry): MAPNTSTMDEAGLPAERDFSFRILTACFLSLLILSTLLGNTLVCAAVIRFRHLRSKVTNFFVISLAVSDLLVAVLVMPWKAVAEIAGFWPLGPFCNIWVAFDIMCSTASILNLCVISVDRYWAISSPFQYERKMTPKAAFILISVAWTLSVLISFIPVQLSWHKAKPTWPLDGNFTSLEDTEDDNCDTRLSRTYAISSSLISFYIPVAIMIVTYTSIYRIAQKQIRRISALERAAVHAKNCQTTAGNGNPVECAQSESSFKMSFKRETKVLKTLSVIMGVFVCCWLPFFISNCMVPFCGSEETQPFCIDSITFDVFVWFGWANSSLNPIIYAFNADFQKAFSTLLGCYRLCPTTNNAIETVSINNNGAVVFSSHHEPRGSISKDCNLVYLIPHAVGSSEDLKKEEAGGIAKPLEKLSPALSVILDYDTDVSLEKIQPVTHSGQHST
- assay conditions: Striatum
- Description: Affinity towards dopamine receptor D1 in rat corpus striatum tissue.
Consider the following molecules and their measured -Log K0.5 readings.
assay readout: -Log K0.5

1. CCCN1CCc2cc(Cl)c(O)cc2C1c1ccccc1 (configuration not stated)	7.05
2. Cc1cccc(C2c3cc(O)c(Cl)cc3CCN2C)c1 (configuration not stated)	8.38
3. CN1CCc2cc(Br)c(O)cc2C1c1ccccc1 (configuration not stated)	7.97
4. Cc1cccc(C)c1C1c2cc(O)c(Cl)cc2CCN1C (configuration not stated)	8.43
5. CC(C)c1ccccc1C1c2cc(O)c(Cl)cc2CCN1C (configuration not stated)	8.56
6. CN1CCc2ccccc2C2c3cc(O)c(I)cc3CCC21 (configuration not stated)	5.96
7. CN(C)c1ccccc1/C=C/N1CCc2cc(Cl)c(O)cc2C(c2ccccc2)C1 (configuration not stated)	7.54
8. CN1CCc2cc(Cl)c(O)cc2C1c1ccccc1Cl (configuration not stated)	8.43
9. CN(C)c1ccccc1CCN1CCc2cc(Cl)c(O)cc2C(c2ccccc2)C1 (configuration not stated)	7.43
10. Cc1ccc(C2c3cc(O)c(Cl)cc3CCN2C)cc1 (configuration not stated)	8.28
11. NC1CCc2ccc(O)cc2C1c1ccccc1 (configuration not stated)	5.53
12. CCCNC1CCc2ccc(O)cc2C1c1ccccc1 (configuration not stated)	6.02

---

- tested target: D(1A) dopamine receptor (Rattus norvegicus)
- assay conditions: Striatum
Consider the following molecules and their measured -Log K0.5 readings.
assay readout: -Log K0.5

1) CNC1CCc2ccc(O)cc2C1c1ccccc1 (stereo not drawn)	5.46
2) CN(C)C1CCc2ccc(O)cc2C1c1ccccc1 (stereo not drawn)	5.85
3) CN1CCc2cc(Cl)c(O)cc2[C@@H](c2ccccc2)C1	9.4
4) CN(C)CCCCCCN1CCc2cc(Cl)c(O)cc2C(c2ccccc2)C1 (stereo not drawn)	6.94
5) Oc1cc2c(cc1Cl)CCN1CCc3ccccc3C21 (stereo not drawn)	5.68
6) CCCN(C)C1CCc2ccc(O)cc2C1c1ccccc1 (stereo not drawn)	5.82
7) Cc1cccc(C2c3cc(O)c(Cl)cc3CCN2C)c1C (stereo not drawn)	8
8) CNCCCCCCN1CCc2cc(Cl)c(O)cc2C(c2ccccc2)C1 (stereo not drawn)	6.86
9) CN1CCc2ccc(O)cc2C1c1ccccc1 (stereo not drawn)	6.37
10) CN1CCc2cc(Cl)c(O)cc2C2c3ccccc3CCC21 (stereo not drawn)	8.3
11) CN1CCc2cc(Cl)c(O)cc2C1c1ccccc1 (stereo not drawn)	8.28
12) CN1CCc2cc(Cl)c(O)cc2C1Cc1ccccc1 (stereo not drawn)	7.24
13) Cc1ccccc1C1c2cc(O)c(Cl)cc2CCN1C (stereo not drawn)	8.43
